Measured IC50 at 24 h by item
settings: human, HepG2 cells

# Compound, IC50 at 24 h
measured = [
    ("CCc1ccc(C(=O)Nc2cnc(Cl)cn2)cc1 [Compound 2i]", "> 250 µM"),
    ("O=C(Nc1cncc(Cl)n1)c1cccc(C(F)(F)F)c1 [Compound 3n]", "> 250 µM"),
    ("Cc1ccc(C(=O)Nc2cnc(Cl)cn2)cc1 [Compound 2h]", "> 250 µM"),
    ("O=C(Nc1cnc(Cl)cn1)c1ccccc1O [Compound 2b]", "155 µM"),
    ("CC(=O)Oc1ccccc1C(=O)Nc1cnc(Cl)cn1 [Compound 2b-Ac]", "95.4 µM"),
    ("CC(=O)Oc1ccc(C(=O)Nc2cnc(Cl)cn2)cc1 [Compound 2d-Ac]", "> 500 µM"),
]

====

tested on: Staphylococcus aureus H 5996/08 methicillin resistant; assay: microbe, parasite or virus in culture; assay type: cell-based; settings: Staphylococcus aureus, MRSA, 48 h, read-out: MIC MRSA
List of MIC values.

# Molecule, MIC
records = [
    ("O=C(Nc1cncc(Cl)n1)c1ccccc1Cl", "> 500 µM"),
    ("COc1ccc(C(=O)Nc2cnccn2)cc1", "> 500 µM"),
    ("COc1cccc(C(=O)Nc2cnccn2)c1", "> 500 µM"),
    ("CC1(C)S[C@@H]2[C@H](NC(=O)COc3ccccc3)C(=O)N2[C@H]1C(=O)O [Phen, phenoxymethylpenicillin, reference compound]", "500 µM"),
    ("CC(=O)Oc1ccccc1C(=O)Nc1cnc(Cl)cn1", "250 µM"),
    ("O=C(Nc1cnccn1)c1cccc(C(F)(F)F)c1", "> 125 µM"),
    ("O=C(Nc1cnc(Cl)cn1)c1ccc(O)cc1", "> 500 µM"),
    ("COc1ccc(C(=O)Nc2cnc(Cl)cn2)cc1", "> 125 µM"),
    ("CCc1ccc(C(=O)Nc2cnccn2)cc1", "> 500 µM"),
]

====

Recorded MIC, one value per entry.
system: Staphylococcus epidermidis H 6966/08; assay: Antibacterial microdilution broth, SE; type: cell-based; details: 48 h; read-out: MIC SE

# Compound, Tested on, MIC
rows = [
    ("NC[C@@H]1O[C@H](O[C@H]2[C@@H](O)[C@H](O[C@@H]3[C@@H](O)[C@H](N)C[C@H](N)[C@H]3O[C@H]3O[C@H](CN)[C@@H](O)[C@H](O)[C@H]3N)O[C@@H]2CO)[C@H](N)[C@@H](O)[C@@H]1O [Neom, neomycin, reference compound]", "Staphylococcus epidermidis H 6966/08", "7.81 µM"),
    ("O=C(Nc1cnccn1)c1cccc(C(F)(F)F)c1 [Compound 1n]", "Staphylococcus epidermidis H 6966/08", "62.50 µM"),
    ("COc1cccc(C(=O)Nc2cnc(Cl)cn2)c1 [Compound 2f]", "Staphylococcus epidermidis H 6966/08", ">500 µM"),
    ("O=C(Nc1cnc(Cl)cn1)c1cccc(O)c1 [Compound 2c]", "Staphylococcus epidermidis H 6966/08", ">500 µM"),
    ("O=C(Nc1cnc(Cl)cn1)c1ccccc1Cl [Compound 2j]", "Staphylococcus epidermidis H 6966/08", ">500 µM"),
    ("CC(=O)Oc1cccc(C(=O)Nc2cnc(Cl)cn2)c1 [Compound 2c-Ac]", "Staphylococcus epidermidis H 6966/08", ">125 µM"),
    ("CC(=O)Oc1ccc(C(=O)Nc2cnc(Cl)cn2)cc1 [Compound 2d-Ac]", "Staphylococcus epidermidis H 6966/08", ">125 µM"),
    ("O=C(Nc1cnc(Cl)cn1)c1ccccc1O [Compound 2b]", "Staphylococcus epidermidis H 6966/08", "62.50 µM"),
]

====

Parameter MIC: see the listing below.
tested on: Trichophyton interdigitale 445; assay: Antifungal microdilution broth, TI; type: cell-based; conditions: Trichophyton interdigitale, 445, 120 h, read-out: MIC TI

# Compound, MIC
data = [
    ("O=C(Nc1cnccn1)c1cccc(C(F)(F)F)c1 [Compound 1n]", "> 125 µM"),
    ("CC(=O)Oc1ccccc1C(=O)Nc1cnc(Cl)cn1 [Compound 2b-Ac]", "250 µM"),
    ("CC(=O)Oc1ccc(C(=O)Nc2cnccn2)cc1 [Compound 1d-Ac]", "> 500 µM"),
    ("O=C(c1ccc(Cl)cc1)N(C(=O)c1ccc(Cl)cc1)c1cnccn1 [Compound 1l-SP]", "> 125 µM"),
    ("O=C(Nc1cnc(Cl)cn1)c1ccccc1Cl [Compound 2j]", "> 500 µM"),
    ("O=C(Nc1cncc(Cl)n1)c1cccc(Cl)c1 [Compound 3k]", "> 125 µM"),
    ("O=C(Nc1cncc(Cl)n1)c1ccccc1Cl [Compound 3j]", "> 500 µM"),
    ("O=C(Nc1cnccn1)c1ccccc1Cl [Compound 1j]", "> 500 µM"),
    ("COc1cccc(C(=O)Nc2cnc(Cl)cn2)c1 [Compound 2f]", "> 500 µM"),
    ("COc1ccccc1C(=O)Nc1cnc(Cl)cn1 [Compound 2e]", "> 125 µM"),
    ("CC(=O)Oc1cccc(C(=O)Nc2cnc(Cl)cn2)c1 [Compound 2c-Ac]", "> 125 µM"),
    ("O=C(Nc1cnc(Cl)cn1)c1ccc(Br)cc1 [Compound 2m]", "> 125 µM"),
    ("COc1ccccc1C(=O)Nc1cnccn1 [Compound 1e]", "> 500 µM"),
    ("CC(=O)Oc1cccc(C(=O)Nc2cnccn2)c1 [Compound 1c-Ac]", "> 500 µM"),
    ("COc1ccc(C(=O)Nc2cnccn2)cc1 [Compound 1g]", "> 500 µM"),
    ("O=C(Nc1cnc(Cl)cn1)c1ccc(O)cc1 [Compound 2d]", "> 500 µM"),
    ("O=C(Nc1cnc(Cl)cn1)c1cccc(O)c1 [Compound 2c]", "> 500 µM"),
    ("O=C(Nc1cnc(Cl)cn1)c1cccc(Cl)c1 [Compound 2k]", "> 125 µM"),
    ("COc1ccc(C(=O)Nc2cnc(Cl)cn2)cc1 [Compound 2g]", "> 125 µM"),
    ("O=C(Nc1cnccn1)c1ccc(Cl)cc1 [Compound 1l]", "> 125 µM"),
    ("CCc1ccc(C(=O)Nc2cnccn2)cc1 [Compound 1i]", "> 500 µM"),
    ("O=C(Nc1cnccn1)c1ccccc1 [Compound 1a]", "> 500 µM"),
]

====

system: Staphylococcus aureus CCM 4516/08; experiment: Antibacterial microdilution broth, SA; format: cell-based; conditions: Staphylococcus aureus, CCM4516, 48 h, read-out: MIC SA, 48 h
Assay readout: MIC (µM)

# Smiles entry, Assay readout, Result modifier, Value observed
measured = [
    ("CC(=O)Oc1ccc(C(=O)Nc2cnc(Cl)cn2)cc1", "MIC", "=", 0.98),
    ("O=C(Nc1cnc(Cl)cn1)c1ccc(O)cc1", "MIC", "=", 31.2),
    ("O=C(Nc1cnc(Cl)cn1)c1cccc(Cl)c1", "MIC", ">", 125),
    ("COc1ccc(C(=O)Nc2cnc(Cl)cn2)cc1", "MIC", ">", 125),
    ("CC(=O)Oc1ccccc1C(=O)Nc1cnc(Cl)cn1", "MIC", "=", 125),
]

====

tested on: Candida glabrata 20/I; assay: Antifungal microdilution broth, CG; type: cell-based; settings: Nakaseomyces glabratus, 20/I, 24 h, read-out: MIC CG
Assay readout: MIC

# Smiles entry, Assay readout, Value observed
rows = [
    ("O=C(Nc1cnc(Cl)cn1)c1ccc(Br)cc1", "MIC", "> 125 µM"),
    ("O=C(Nc1cnccn1)c1ccccc1O", "MIC", "> 500 µM"),
    ("CC(=O)Oc1ccc(C(=O)Nc2cnc(Cl)cn2)cc1", "MIC", "> 125 µM"),
    ("COc1ccc(C(=O)Nc2cnc(Cl)cn2)cc1", "MIC", "> 125 µM"),
    ("CC(=O)Oc1cccc(C(=O)Nc2cnccn2)c1", "MIC", "> 500 µM"),
    ("O=C(Nc1cncc(Cl)n1)c1cccc(Cl)c1", "MIC", "> 125 µM"),
    ("O=C(Nc1cnc(Cl)cn1)c1ccccc1", "MIC", "> 500 µM"),
    ("CC(=O)Oc1ccc(C(=O)Nc2cnccn2)cc1", "MIC", "> 500 µM"),
    ("O=C(Nc1cnc(Cl)cn1)c1ccc(Cl)cc1", "MIC", "> 125 µM"),
    ("CC(=O)Oc1ccccc1C(=O)Nc1cnc(Cl)cn1", "MIC", "250 µM"),
    ("COc1ccccc1C(=O)Nc1cnccn1", "MIC", "> 500 µM"),
    ("O=C(Nc1cnc(Cl)cn1)c1ccc(O)cc1", "MIC", "> 500 µM"),
    ("O=C(Nc1cnccn1)c1ccc(Cl)cc1", "MIC", "> 125 µM"),
    ("Cc1ccc(C(=O)Nc2cnc(Cl)cn2)cc1", "MIC", "> 125 µM"),
    ("O=C(Nc1cnccn1)c1cccc(O)c1", "MIC", "> 500 µM"),
    ("COc1cccc(C(=O)Nc2cnccn2)c1", "MIC", "> 500 µM"),
    ("CCc1ccc(C(=O)Nc2cnc(Cl)cn2)cc1", "MIC", "> 125 µM"),
    ("COc1ccc(C(=O)Nc2cnccn2)cc1", "MIC", "> 500 µM"),
    ("O=C(Nc1cnc(Cl)cn1)c1cccc(Cl)c1", "MIC", "> 125 µM"),
    ("COc1ccccc1C(=O)Nc1cnc(Cl)cn1", "MIC", "> 125 µM"),
    ("O=C(c1ccc(Cl)cc1)N(C(=O)c1ccc(Cl)cc1)c1cnccn1", "MIC", "> 125 µM"),
    ("O=C(Nc1cnc(Cl)cn1)c1cccc(O)c1", "MIC", "> 500 µM"),
    ("CC(=O)Oc1cccc(C(=O)Nc2cnc(Cl)cn2)c1", "MIC", "> 125 µM"),
]
